# experimental_system: T1, purified HLA-B*0702 (human)
# T1 construct: Purified MHC class I molecule incubated with human b2m; complexes captured with W6/32 antibody; also called HLA-B7; immobilized purified HLA-B7 molecule
# assay_remarks: competition solid-phase radioimmunoassay on purified HLA-B7, radiolabeled standard peptide
value_kind: IC50 (nM)

(1) FVRACLRRL (Synthetic 9mer peptide of human telomerase reverse transcriptase) [hTRT peptide p464 (FVRACLRRL)]
(2) LPGTTLTAL (Synthetic 9mer peptide of human telomerase reverse transcriptase) [hTRT peptide p1107 (LPGTTLTAL)]
(3) LPSDFKTIL (Synthetic 9mer peptide of human telomerase reverse transcriptase) [hTRT peptide p1123 (LPSDFKTIL)]
Task item: Your job: order these 3 records by IC50, ascending. Response field: labels, in requested order.
Reply: 2, 1, 3
(2: 0.96 nM, 1: 4.1 nM, 3: 11 nM)

// data source = patent US20090202499A1
